Exercise: for every item that follows, state its recorded Tmax.
Assay: Tmax in mouse at 3 mg/kg, po
Assay type: ADME, organism-based
Settings: in vivo
Give bare numbers, in h.

COc1ncc(-c2ccc3nccc(=O)n3c2)cc1NS(=O)(=O)c1ccc(F)cc1F: 0.333

Tmax for COc1ncc(-c2ccc3ncc(Cl)c(=O)n3c2)cc1NS(=O)(=O)c1ccc(F)cc1F ?
2.67

====

Exercise: for every item that follows, state its recorded pIC50.
Biological target: Serine/threonine-protein kinase mTOR (Homo sapiens, UniProt P42345)
Experiment: Inhibition of mTOR in human MCF7 cells assessed as reduction in P70S6K phosphorylation after 4 hrs by […] assay
Format: cell-based
Numbers only, as −log10 of the molar value.

State recorded pIC50 for all listed compounds.
1. COc1ncc(-c2ccc3nccc(=O)n3c2)cc1NS(=O)(=O)c1cc(F)cc(F)c1
2. COc1ncc(-c2ccc3nccc(=O)n3c2)cc1NS(=O)(=O)c1ccccc1

[7.11, 6.70]
